B1: glmS ribozyme (parent)
chain: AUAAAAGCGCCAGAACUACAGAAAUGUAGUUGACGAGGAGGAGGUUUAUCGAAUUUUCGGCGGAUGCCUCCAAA

Variants of: B1
experimental-protocol: kcat; higher = faster cleavage; RNA array
condition-set: with glucosamine-6-phosphate
This sample holds only a part of the variants without activity.
Hi there, I'd appreciate the recorded kcat for every entry that follows.

Reported kcat, variant G13A A36C : ____
< 1e-05 s⁻¹

Reported kcat, variant G63U : ____
< 1e-05 s⁻¹

Reported kcat, variant A6U U30C : ____
< 1e-05 s⁻¹
